// reported MIC for each item listed
- System: Staphylococcus aureus
- testName: Antimicrobial activity against Staphylococcus aureus ATCC 25923 by broth dilution method
- Assay type: functional

// solved cases for MIC follow
N#Cc1ccc(COc2ccc3cc(S(=O)(=O)N[C@@H]4CCCC[C@H]4C(=O)O)ccc3c2)c(F)c1	> 512 µg/mL
N#Cc1ccc(COc2ccc3cc(S(=O)(=O)Nc4cc(C(=O)O)cc(C(=O)O)c4)ccc3c2)c(F)c1	> 512 µg/mL

input: Need MIC, item CCCCOc1ccc2cc(S(=O)(=O)Nc3cc(C(=O)O)ccc3C(=O)O)ccc2c1
output: > 512 µg/mL

----------
- Test system: Enterococcus faecium
- testName: Antimicrobial activity against Enterococcus faecium ATCC 19434 by broth dilution method
- Assay type: functional
assayEndpoint: MIC

// solved cases for MIC follow
CCCCOc1ccc2cc(S(=O)(=O)N[C@@H]3CCCC[C@H]3C(=O)O)ccc2c1	256 µg/mL
N#Cc1ccc(COc2ccc3cc(S(=O)(=O)NC4CCC(C(=O)O)CC4C(=O)O)ccc3c2)c(F)c1 (racemic)	> 512 µg/mL
N#Cc1ccc(COc2ccc3cc(S(=O)(=O)Nc4cc(C(=O)O)ccc4C(=O)O)ccc3c2)c(F)c1	> 512 µg/mL
CCCCOc1ccc2cc(S(=O)(=O)N[C@H]3CCCC[C@H]3C(=O)O)ccc2c1	256 µg/mL
N#Cc1ccc(COc2ccc3cc(S(=O)(=O)Nc4cc(C(=O)O)cc(C(=O)O)c4)ccc3c2)c(F)c1	> 512 µg/mL

input: Need MIC, item N#Cc1ccc(COc2ccc3cc(S(=O)(=O)Nc4ccc(O)cc4C(=O)O)ccc3c2)c(F)c1
output: > 512 µg/mL
